Measured values drawn from PubChem BioAssay (Tox21) for this set.

Listed here: items and their measured max response.
- procedureSummary: qHTS RealTime-Glo MT Cell Viability Assay in HEK293 cells - 40 hour (AID 1224874); note: % is set by controls: 0 for no effect and ±100 for the full control effect; nearly all actives have a fitted effect of over 50% in size
- experimentalParameters: RealTime-Glo luminescence; hits give low values
Records with an inconclusive call do not appear.
Report only the number, with the unit % understood.

C/C(=N\O)[C@@H](C)NCC(C)(C)CN[C@H](C)/C(C)=N/O
0.121
Cc1cc2c(s1)Nc1ccccc1N=C2N1CCN(C)CC1
3.41

Proceed to the following item.
In: Look up max response for this compound: O=c1[nH]c(=O)n([C@H]2C[C@H](O)[C@@H](CO)O2)cc1C(F)(F)F
Out: -15
